# System: Raf-1^gof intestinal tumors
# Applied conditions: screen of 480 ICCB compounds in vials; compounds fed to flies with one-day old Raf-1^gof tumors, assessed three days later; esg-Gal4 luciferase; note: test concentration or dose not given here
Peptide text beside a SMILES is read from it. * marks the point of attachment. Boc = CC(C)(C)OC(=O)*
Please respond with Fulfilled when measured Log2 (fold) (luciferase activity, log2 of the fold difference relative to DMSO controls) is strictly beneath -0.3, and with Not fulfilled in all other cases.

{"Molecule": "Nc1ncnc2c1c(I)cn2[C@@H]1O[C@H](CO)[C@@H](O)[C@H]1O [5-iodotubercidin, reference compound]", "Discrete label": "Fulfilled"}
{"Molecule": "CO[C@@]12[C@H](COC(N)=O)C3=C(C(=O)C(C)=C(N)C3=O)N1C[C@@H]1N[C@@H]12 [Mitomycin C]", "Discrete label": "Fulfilled"}
{"Molecule": "N#C/C(=C\\c1ccc(O)c(O)c1)C(N)=S [AG213 (Tyrphostin 47)]", "Discrete label": "Fulfilled"}
{"Molecule": "CC1=C(/C=C/C(C)=C/C=C/C(C)=C/C(=O)Nc2ccc(O)cc2)C(C)(C)CCC1 [4-HYDROXYPHENYLRETINAMIDE]", "Discrete label": "Not fulfilled"}
{"Molecule": "CCCCC/C=C\\C\\C=C/C=C/C=C/[C@@H](SC[C@H](N)C(=O)O)[C@@H](O)CCCC(=O)O [LEUKOTRIENE E4]", "Discrete label": "Fulfilled"}
{"Molecule": "CCCCC[C@H](O)/C=C/C1=C(CCCCCCC(=O)O)C(=O)CC1 [PROSTAGLANDIN B1]", "Discrete label": "Fulfilled"}
{"Molecule": "Cn1c2ccccc2c2c3c(c4c5ccccc5n(CCC#N)c4c21)CNC3=O [Go6976]", "Discrete label": "Not fulfilled"}
{"Molecule": "COC(=O)[C@@H](N)CCCNC(=N)N[N+](=O)[O-] [L-NAME]", "Discrete label": "Fulfilled"}
{"Molecule": "CCCCC[C@H](O)/C=C/C=C\\C/C=C\\C/C=C\\CCCC(=O)O [15(S)-HETE]", "Discrete label": "Fulfilled"}
{"Molecule": "Nc1ncnc2c1ncn2C1CCCO1 (centres unmarked) [SQ22536]", "Discrete label": "Not fulfilled"}
{"Molecule": "CC1(C)CCC(C)(C)c2cc(C(=O)Nc3ccc(C(=O)O)cc3)ccc21 [AM-580]", "Discrete label": "Fulfilled"}
{"Molecule": "O=C(O)CCC/C=C\\C[C@@H]1[C@H](CNNC(=O)Nc2ccccc2)[C@H]2CC[C@@H]1O2 [SQ-29548]", "Discrete label": "Fulfilled"}
{"Molecule": "CC(C)[C@H](NC(=O)CNC(=O)OC(C)(C)C)C(=O)N[C@H](C=O)C(C)C [Boc-GVV-CHO] (Boc-Gly-Val-Val-aldehyde)", "Discrete label": "Fulfilled"}
{"Molecule": "O=C(O)CN1C(=O)c2cccc3cccc(c23)C1=O [Alrestatin]", "Discrete label": "Fulfilled"}
{"Molecule": "O[C@H]1[C@H](O)[C@@H](O)CN2CC[C@H](O)[C@H]12 [castanospermine]", "Discrete label": "Fulfilled"}

----------
# Tested on: Raf-1^gof intestinal tumors
# Experimental details: Luciferase screen of FDA-approved (NCI) drugs in 96-well plates, flies with Raf-1^gof intestinal tumors; note: test concentration or dose not given here
# Format: in vivo, Drosophila
# Applied conditions: average of Day 3 and Day 6 fold
Please respond with 1 when measured Avg (3 + 6) is strictly beneath 0.7 fold, and with 0 in all other cases.

{"Smiles str": "Cc1ccc(NC(=O)c2ccc(CN3CCN(C)CC3)cc2)cc1Nc1nccc(-c2cccnc2)n1", "Discrete label": 1}
{"Smiles str": "O=P(O)(O)C(O)(Cn1ccnc1)P(=O)(O)O", "Discrete label": 0}
{"Smiles str": "C=C1C[C@@H]2[C@H](CC[C@]3(C)C(=O)CC[C@@H]23)[C@@]2(C)C=CC(=O)C=C12", "Discrete label": 0}
{"Smiles str": "Nc1nc(Cl)nc2c1ncn2[C@H]1C[C@H](O)[C@@H](CO)O1", "Discrete label": 0}
{"Smiles str": "O=C(CCBr)N1CCN(C(=O)CCBr)CC1", "Discrete label": 0}
